# System: A549 cell line
# Assay Summary: WST-1 assay of drug responsiveness to pelitinib in A549 with LEPRE1 overexpression or inhibited expression
# Type: cell-based
# Condition: Homo sapiens, A549, A549 transfected with negative control, then treated with pelitinib

Smiles Code | Result Units | IC50
CCOc1cc2ncc(C#N)c(Nc3ccc(F)c(Cl)c3)c2cc1NC(=O)/C=C/CN(C)C | µM | 1.73
